target: T1, human CD1a protein (pool B) (human, UniProt P06126 18-295, limits assumed); assay: SPR (Biacore T200), antibody captured, human CD1a titrated, 1:1 binding model
T1 construct: Recombinant protein of the ELISA (coated) and the Biacore T200 titration; whole entry named; also called human CD1a pool B; full length CD1a
T1 sequence (P06126 18-295 limits assumed): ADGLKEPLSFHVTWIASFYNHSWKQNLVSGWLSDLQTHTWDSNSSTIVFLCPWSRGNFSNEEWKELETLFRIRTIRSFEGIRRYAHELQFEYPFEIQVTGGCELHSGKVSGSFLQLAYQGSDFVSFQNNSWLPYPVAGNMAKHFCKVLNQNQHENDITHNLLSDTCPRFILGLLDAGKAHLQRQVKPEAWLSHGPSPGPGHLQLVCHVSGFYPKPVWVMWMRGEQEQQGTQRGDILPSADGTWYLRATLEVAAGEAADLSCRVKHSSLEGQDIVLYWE
Catalogue of Kd values

# binder, comparativeSign, Kd [nM]
data = [
    ("116 (VR12117) (antibody, V domains shown, also called OX116) VH: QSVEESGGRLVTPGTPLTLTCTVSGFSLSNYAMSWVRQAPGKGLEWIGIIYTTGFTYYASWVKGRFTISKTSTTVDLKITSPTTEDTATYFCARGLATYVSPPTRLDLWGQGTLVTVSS VL: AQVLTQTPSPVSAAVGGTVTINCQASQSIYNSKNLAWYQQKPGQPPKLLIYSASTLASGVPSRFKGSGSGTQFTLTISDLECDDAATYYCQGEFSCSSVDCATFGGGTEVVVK", "=", 2.89),
    ("77A (VR11851) (antibody, V domains shown, also called OX77a; antibody 77a) VH: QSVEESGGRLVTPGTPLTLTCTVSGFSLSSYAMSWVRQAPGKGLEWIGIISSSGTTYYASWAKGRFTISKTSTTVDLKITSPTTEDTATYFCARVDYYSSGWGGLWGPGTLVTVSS VL: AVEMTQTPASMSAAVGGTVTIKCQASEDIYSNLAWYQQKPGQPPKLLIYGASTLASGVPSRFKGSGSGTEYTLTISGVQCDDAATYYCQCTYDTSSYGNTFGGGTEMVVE", "=", 0.24),
    ("110 (VR12112) (antibody, V domains shown, also called OX110; antibody 110) VH: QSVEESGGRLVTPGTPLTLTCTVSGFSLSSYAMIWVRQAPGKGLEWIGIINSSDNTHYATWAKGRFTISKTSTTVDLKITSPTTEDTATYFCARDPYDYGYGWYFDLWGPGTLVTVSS VL: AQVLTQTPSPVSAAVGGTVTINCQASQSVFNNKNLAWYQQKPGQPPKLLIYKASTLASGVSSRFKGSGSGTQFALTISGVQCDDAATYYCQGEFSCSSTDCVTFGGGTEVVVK", "=", 1.97),
    ("111 (VR12113) (antibody, V domains shown, also called OX111) VH: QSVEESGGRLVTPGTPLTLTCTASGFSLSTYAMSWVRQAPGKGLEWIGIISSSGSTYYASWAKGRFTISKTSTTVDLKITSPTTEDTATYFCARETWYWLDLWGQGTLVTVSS VL: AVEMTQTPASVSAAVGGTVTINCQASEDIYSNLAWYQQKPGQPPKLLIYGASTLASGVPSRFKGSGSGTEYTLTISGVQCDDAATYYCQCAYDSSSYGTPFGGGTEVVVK", "≤", 0.0312),
]
